The measured values listed here are drawn from patent US8067197B2.

ASSAY_TARGET: αVβ3 receptor (placenta, full length recombinant, soluble recombinant)
EXPERIMENT_DESCRIPTION: Competition assay: inhibition of biotinylated vitronectin binding to immobilized integrin
MEASUREMENT_CONTEXT: biotinylated vitronectin 1 μg/ml, 3 h, 37° C.
RECORDED_METRIC: IC50

Query: Could you please provide reported IC50 for CC(C)[C@@H]1NC(=O)[C@@H](Cc2ccccc2)NC(=O)[C@H](CC(=O)O)NC(=O)CNC(=O)[C@H](CCCNC(=N)N)NC1=O [cyc(RGDfV)] ? Thanks!
Result: 1 to 5 nM
